Tested target: UniProt:P51449
Assay details: RORγ Gal4 Reporter Gene Assay in 293T cells (firefly and renilla luciferase)
Format: cell-based, human
Measurement conditions: second value of the cell; Gal4 reporter gene assay in 293T cells, firefly luciferase
Returns one of rule met or rule not met; rule met when pIC50 (FF) is >= 7.

- Compound: "Cc1c(C(=O)N2CC3(CCOCC3)C2)cc(-c2ccc(S(=O)(=O)NC(C)(C)C)c3ccccc23)n1CC1CCCCC1"
  Class name: "rule met"
- Compound: "Cc1c(C(=O)NCC(C)(C)O)cc(-c2cc(C(=O)NC(C)(C)C)nc(C3(C)CC3)n2)n1CC1CCCCC1"
  Class name: "rule not met"
- Compound: "CCN(C(C)(C)C)S(=O)(=O)c1ccc(-c2cc(C(=O)NC3COC3)c(C)n2CC2CCCCC2)cc1C(C)(C)C"
  Class name: "rule met"

Could you tell me if the measured pIC50 (FF) of Cc1c(C(=O)NCC2(O)CC[S+]([O-])CC2)cc(-c2cc(C(C)(C)C)c3c(c2)C2(CCO3)CC2)n1CC1CCCCC1 (centres unmarked) reaches 7 or more? rule not met

Repeat with `Cc1c(C(=O)N[C@@H]2CCOC2)cc(-c2cc(C(C)(C)C)c3c(c2)C2(CCO3)CC2)n1CC1CCCCC1` rule not met

How about this compound: `CNS(=O)(=O)c1ccc(-c2cc(C(=O)NC3CCOCC3)c(C)n2CC2CCCCC2)cc1C(F)(F)F` rule not met

---

// pIC50 (REN) lookup, one value per entry
Tested target: RORγ (UniProt P51449)
Sequence (P51449 1-518): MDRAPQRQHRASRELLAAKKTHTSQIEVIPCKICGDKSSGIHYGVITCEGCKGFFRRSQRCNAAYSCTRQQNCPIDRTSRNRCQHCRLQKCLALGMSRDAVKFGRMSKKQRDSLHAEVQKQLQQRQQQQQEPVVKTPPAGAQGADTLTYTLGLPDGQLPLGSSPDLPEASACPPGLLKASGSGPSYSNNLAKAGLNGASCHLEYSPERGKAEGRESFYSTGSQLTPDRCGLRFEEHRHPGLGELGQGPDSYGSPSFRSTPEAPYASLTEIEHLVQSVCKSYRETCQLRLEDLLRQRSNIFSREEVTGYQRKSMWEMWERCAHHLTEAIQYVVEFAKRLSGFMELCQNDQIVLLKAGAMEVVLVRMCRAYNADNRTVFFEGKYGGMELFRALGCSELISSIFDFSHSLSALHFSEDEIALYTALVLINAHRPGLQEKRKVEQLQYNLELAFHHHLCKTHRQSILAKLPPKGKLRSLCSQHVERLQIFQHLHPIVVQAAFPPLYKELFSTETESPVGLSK
Assay details: RORγ Gal4 Reporter Gene Assay in 293T cells (firefly and renilla luciferase)
Type: cell-based, human
Measurement conditions: third value of the cell; Gal4 reporter gene assay in 293T cells, renilla normalised luciferase
Note: the reply should be a number with no unit written.

- Chemical structure: "Cc1c(C(=O)NCC2CCOCC2)cc(-c2cc(C(C)(C)C)c3c(c2)C2(CCO3)CC2)n1CC1CCCCC1"
  pIC50 (REN): 7.3
- Chemical structure: "Cc1c(C(=O)NC2CCOCC2)cc(-c2ccc(S(=O)(=O)NC(C)(C)C)c3cccnc23)n1CC1CCCCC1"
  pIC50 (REN): 6.7

Now consider the entry below.
Item under review: `Cc1c(C(=O)N[C@H]2C[C@H](C(=O)O)C2)cc(-c2cc(C(C)(C)C)cc(C(C)(C)C)c2OC(F)F)n1CC1CCCCC1` . Reported pIC50 (REN)? 7.0
